measured-on: Recombinant human intelectin-1 (Homo sapiens, UniProt Q8WWA0, V109D)
Sequence (Q8WWA0 19-298 V109D): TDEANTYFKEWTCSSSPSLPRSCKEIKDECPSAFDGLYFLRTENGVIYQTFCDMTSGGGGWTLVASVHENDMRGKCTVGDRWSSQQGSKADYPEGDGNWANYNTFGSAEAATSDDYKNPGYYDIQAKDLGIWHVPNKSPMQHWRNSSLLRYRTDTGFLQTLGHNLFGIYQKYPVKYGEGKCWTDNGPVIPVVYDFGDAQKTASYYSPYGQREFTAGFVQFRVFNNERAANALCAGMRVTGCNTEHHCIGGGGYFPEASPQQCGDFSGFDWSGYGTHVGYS
experimental-details: Inhibition of the binding of intelectin to a 3-amino-1-propanediol sensor chip by various compounds (Biacore, Example 3)
particulars: Biacore; intelectin 0.5 microgram/mL; sensor chip with 3-amino-1-propanediol fixed; 10 mM HEPES pH 7.0, 1 mM CaCl2; read-out: IC50 for inhibition of the binding of intelectin and the diol group
Criterion: IC50 strictly under 9 mM. Met: yes. Not met: no.

Reference set (5 entries):
C[C@@H](O)[C@@H](C)O [(R,R)-2,3-butanediol] = yes
O=C1O[C@H]([C@@H](O)CO)C(O)=C1O = yes
C[C@H](O)[C@H](C)O [(S,S)-2,3-butanediol] = yes
OC[C@@H](O)[C@@H](O)[C@@H](O)CO = yes
O=P(O)(O)OC(CO)CO [Beta-glycerophosphate] = no

Quick check: does O=C[C@H](O)[C@@H](O)[C@H](O)CO have IC50 under 9 mM?
yes

Quick check: does C[C@H](O)[C@H](O)[C@@H](O)[C@@H](O)C=O have IC50 under 9 mM?
no

Quick check: does CCO have IC50 under 9 mM?
no

Quick check: does O=CC[C@H](O)[C@H](O)CO have IC50 under 9 mM?
yes

Quick check: does CC(=O)N[C@H]1C(O)O[C@H](CO)[C@@H](O[C@@H]2O[C@H](CO)[C@H](O)[C@H](O)[C@H]2O)[C@@H]1O (stereo partly drawn) have IC50 under 9 mM?
no

Quick check: does CCCC(=O)OCC(O)CO (stereo not drawn) have IC50 under 9 mM?
yes

Quick check: does NCCCO have IC50 under 9 mM?
no

Quick check: does NCC(O)CO (stereo not drawn) have IC50 under 9 mM?
yes

Quick check: does O=C[C@H](O)[C@H](O)[C@H](O)CO have IC50 under 9 mM?
yes

Quick check: does CC(O)CCO (stereo not drawn) have IC50 under 9 mM?
no
